These measurements were taken from patent US7772425B2.

# Test system: IL-10
# assay.details: human IL-10 induction assay in PBMCs
# Type: cell-based
# condition.summary: TPA/PHA treated human PBMCs, IL-10 immunoassay of supernatant
# Text: The evaluation of the novel compounds of the invention for psoriasis is done using the Keratinocyte Proliferation Assay in combination with other assays that measure inhibition of IL-2 production and stimulation of IL-10 production in peripheral blood mononuclear cells (PBMCs). 6. The IL-10 Induction Assay This is an in vitro efficacy assay for psoriasis, abscess and adhesion. Psoriasis involves both keratinocytes and immune cells. […]
Entries and their measured IC50 follow.
reported.endpoint: IC50 (nM)

>  <compound>
CCC(CC)(c1ccc(OCC(O)C(C)(C)C)c(C)c1)c1ccc(C(=O)N(C)CC(=O)O)c(C)c1 (single isomer, unassigned) [Ex. 19]

>  <tgt>
IL-10

>  <observed>
142

$$$$
>  <compound>
CCC(CC)(c1ccc(C(=O)O)cc1)c1ccc(OCC(O)C(C)(C)C)c(C)c1 (single isomer, unassigned)

>  <tgt>
IL-10

>  <observed>
27

$$$$
>  <compound>
CCC(CC)(c1ccc(OCC(O)C(C)(C)C)c(C)c1)c1ccc(C(=O)NCC(=O)O)c(C)c1 (single isomer, unassigned) [Ex. 25B]

>  <tgt>
IL-10

>  <observed>
158

$$$$
>  <compound>
CCC(CC)(c1ccc(OCC(O)C(C)(C)C)c(C)c1)c1ccc(C(=O)N(C)CC(=O)O)c(C)c1 (single isomer, unassigned) [Ex. 18]

>  <tgt>
IL-10

>  <observed>
47

$$$$
>  <compound>
CCC(CC)(c1ccc(CC2SC(=O)NC2=O)c(C)c1)c1ccc(OCC(O)C(C)(C)C)c(C)c1 (single isomer, unassigned) [Ex. 51]

>  <tgt>
IL-10

>  <observed>
19

$$$$
>  <compound>
CCC(CC)(c1ccc(OCC(O)C(C)(C)C)c(C)c1)c1ccc(C(=O)Nc2nnn[nH]2)c(C)c1 (single isomer, unassigned)

>  <tgt>
IL-10

>  <observed>
52

$$$$
>  <compound>
CCC(CC)(c1ccc(OCC(O)C(C)(C)C)c(C)c1)c1ccc(C(=O)NCC(=O)O)c(C)c1 (single isomer, unassigned) [Ex. 25A]

>  <tgt>
IL-10

>  <observed>
40

$$$$

----------
# Tested on: IL-10
# assay.details: human IL-10 induction assay in PBMCs
# Format: cell-based
# condition.summary: Homo sapiens, PBMC, TPA/PHA treated human PBMCs, IL-10 immunoassay of supernatant
pIC50: −log10 of the molar value.
Entries and their measured pIC50 follow.
reported.endpoint: pIC50

>  <compound>
CCC(CC)(c1ccc(OC(C)C(O)C(C)(C)C)c(C)c1)c1ccc(C(=O)N(C)CC(=O)O)c(C)c1 (single isomer, unassigned)

>  <tgt>
IL-10

>  <reported.endpoint>
pIC50

>  <observed>
6.81

$$$$
>  <compound>
CCC(CC)(c1ccc(C(=O)O)cc1)c1ccc(OCC(O)C(C)(C)C)c(C)c1 (single isomer, unassigned)

>  <tgt>
IL-10

>  <reported.endpoint>
pIC50

>  <observed>
7.41

$$$$
>  <compound>
CCC(CC)(c1ccc(OC(C)C(O)C(C)(C)C)c(C)c1)c1ccc(C(=O)N[C@H](C)C(=O)O)c(C)c1 (some centres unmarked)

>  <tgt>
IL-10

>  <reported.endpoint>
pIC50

>  <observed>
7.48

$$$$
>  <compound>
CCC(CC)(c1ccc(OC(C)C(O)C(C)(C)C)c(C)c1)c1ccc(C(=O)Nc2nnn[nH]2)c(C)c1 (single isomer, unassigned)

>  <tgt>
IL-10

>  <reported.endpoint>
pIC50

>  <observed>
6.82

$$$$
>  <compound>
CCC(CC)(c1ccc(OCC(O)C(C)(C)C)c(C)c1)c1ccc(C(=O)NC(C)(C)C(=O)O)c(C)c1 (single isomer, unassigned) [Ex. 20B]

>  <tgt>
IL-10

>  <reported.endpoint>
pIC50

>  <observed>
8.40

$$$$
>  <compound>
CCC(CC)(c1ccc(OCC(O)C(C)(C)C)c(C)c1)c1ccc(C(=O)N[C@H](C)C(=O)O)c(C)c1 (some centres unmarked)

>  <tgt>
IL-10

>  <reported.endpoint>
pIC50

>  <observed>
7.35

$$$$
>  <compound>
CCC(CC)(c1ccc(OC(C)C(O)C(C)(C)C)c(C)c1)c1ccc(C(=O)O)c(C)c1 (single isomer, unassigned)

>  <tgt>
IL-10

>  <reported.endpoint>
pIC50

>  <observed>
6.32

$$$$
>  <compound>
CCC(CC)(c1ccc(COCC(=O)O)c(C)c1)c1ccc(OCC(O)C(C)(C)C)c(C)c1 (single isomer, unassigned)

>  <tgt>
IL-10

>  <reported.endpoint>
pIC50

>  <observed>
7.72

$$$$
